Numbers sourced from patent EP4624485A1.

# system.name: T1, human recombinant CD206 (Cat # 2534-MR-050/CF from R&D systems) (human, UniProt P22897 19-1383, limits assumed)
# T1 construct: Bought recombinant protein; also called Macrophage Mannose Receptor 1; PAH/CD206 multilayer
# T1 sequence: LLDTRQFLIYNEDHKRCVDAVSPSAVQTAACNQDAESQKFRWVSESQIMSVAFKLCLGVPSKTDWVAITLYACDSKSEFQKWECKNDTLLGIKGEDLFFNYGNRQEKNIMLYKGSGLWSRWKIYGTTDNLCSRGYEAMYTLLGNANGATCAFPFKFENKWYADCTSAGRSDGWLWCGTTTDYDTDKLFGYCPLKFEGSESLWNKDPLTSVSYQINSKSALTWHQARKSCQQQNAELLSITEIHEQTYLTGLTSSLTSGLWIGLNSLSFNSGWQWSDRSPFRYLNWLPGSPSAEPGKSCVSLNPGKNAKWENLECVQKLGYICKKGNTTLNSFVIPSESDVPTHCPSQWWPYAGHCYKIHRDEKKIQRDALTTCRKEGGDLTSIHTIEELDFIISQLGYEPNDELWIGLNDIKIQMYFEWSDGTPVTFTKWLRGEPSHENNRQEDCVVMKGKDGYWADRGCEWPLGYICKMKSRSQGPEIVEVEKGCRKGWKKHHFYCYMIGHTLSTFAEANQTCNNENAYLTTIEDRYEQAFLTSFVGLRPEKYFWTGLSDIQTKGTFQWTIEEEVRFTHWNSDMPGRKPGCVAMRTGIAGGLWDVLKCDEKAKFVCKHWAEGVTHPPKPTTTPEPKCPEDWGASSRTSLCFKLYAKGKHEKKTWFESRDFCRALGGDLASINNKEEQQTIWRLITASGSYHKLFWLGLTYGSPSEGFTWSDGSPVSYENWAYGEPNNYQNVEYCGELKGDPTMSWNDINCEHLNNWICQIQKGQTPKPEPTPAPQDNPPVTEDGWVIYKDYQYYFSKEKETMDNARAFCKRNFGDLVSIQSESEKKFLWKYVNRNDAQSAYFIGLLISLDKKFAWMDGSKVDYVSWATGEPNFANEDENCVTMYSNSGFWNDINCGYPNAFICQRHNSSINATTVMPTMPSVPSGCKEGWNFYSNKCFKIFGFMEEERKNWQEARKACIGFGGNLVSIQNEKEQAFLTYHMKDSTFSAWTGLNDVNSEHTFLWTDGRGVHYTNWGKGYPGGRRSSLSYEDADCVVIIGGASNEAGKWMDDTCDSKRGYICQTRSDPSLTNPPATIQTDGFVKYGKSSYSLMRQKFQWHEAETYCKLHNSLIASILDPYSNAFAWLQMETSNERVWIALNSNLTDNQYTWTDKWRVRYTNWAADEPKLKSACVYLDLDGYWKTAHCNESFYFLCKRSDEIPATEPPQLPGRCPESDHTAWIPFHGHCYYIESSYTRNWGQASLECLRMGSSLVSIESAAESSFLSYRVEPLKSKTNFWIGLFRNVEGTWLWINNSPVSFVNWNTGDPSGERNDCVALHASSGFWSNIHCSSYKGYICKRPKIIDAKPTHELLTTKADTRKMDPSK
# test.description: QCM, PAH/CD206 multilayer, curves fitted with TraceDrawer
Bridge positions count the residues as written; N and C are the ends. Ends that are not written are not given here.
reported.endpoint: pKd
Notebook: values listed as pKd are -log10 of the concentration (mol/L).

{"binder": "CSPGAK (also called mUNO peptide) [mUNO]", "reported.endpoint": "pKd", "number": 5.22}

Now for the binder whose pKd we want.
Inquiry: Look up pKd of GCTKSIPPICSPGAK (disulfide 2-10, Monocyclic through the C2-C10 disulfide; also called the peptide of the invention) [MACTIDE] and report it.
Reply text: 6.42
